Target: Integrin alpha-IIb/beta-3 (Homo sapiens, UniProt P05106+P08514)
Sequence (P05106 27-788 limits assumed): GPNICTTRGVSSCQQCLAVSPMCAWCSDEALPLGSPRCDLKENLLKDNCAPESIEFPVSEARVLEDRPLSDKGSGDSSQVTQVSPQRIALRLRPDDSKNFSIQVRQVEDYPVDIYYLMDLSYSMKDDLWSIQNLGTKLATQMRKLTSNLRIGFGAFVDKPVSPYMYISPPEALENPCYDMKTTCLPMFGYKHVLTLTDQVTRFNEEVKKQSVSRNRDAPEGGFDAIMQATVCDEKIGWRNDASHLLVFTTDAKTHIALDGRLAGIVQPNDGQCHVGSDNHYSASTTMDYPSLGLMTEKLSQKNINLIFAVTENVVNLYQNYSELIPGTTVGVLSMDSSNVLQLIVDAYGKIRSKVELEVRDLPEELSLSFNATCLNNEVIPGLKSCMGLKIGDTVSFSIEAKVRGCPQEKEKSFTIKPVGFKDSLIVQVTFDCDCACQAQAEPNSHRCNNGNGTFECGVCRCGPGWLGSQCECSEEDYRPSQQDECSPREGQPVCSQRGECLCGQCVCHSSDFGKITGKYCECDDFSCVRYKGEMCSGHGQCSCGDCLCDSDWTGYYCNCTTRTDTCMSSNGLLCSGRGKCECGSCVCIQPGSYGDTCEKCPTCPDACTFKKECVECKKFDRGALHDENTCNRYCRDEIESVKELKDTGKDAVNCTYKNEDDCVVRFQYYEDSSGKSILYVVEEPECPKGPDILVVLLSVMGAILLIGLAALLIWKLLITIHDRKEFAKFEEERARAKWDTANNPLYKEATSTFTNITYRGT
Sequence (P08514 32-887 limits assumed): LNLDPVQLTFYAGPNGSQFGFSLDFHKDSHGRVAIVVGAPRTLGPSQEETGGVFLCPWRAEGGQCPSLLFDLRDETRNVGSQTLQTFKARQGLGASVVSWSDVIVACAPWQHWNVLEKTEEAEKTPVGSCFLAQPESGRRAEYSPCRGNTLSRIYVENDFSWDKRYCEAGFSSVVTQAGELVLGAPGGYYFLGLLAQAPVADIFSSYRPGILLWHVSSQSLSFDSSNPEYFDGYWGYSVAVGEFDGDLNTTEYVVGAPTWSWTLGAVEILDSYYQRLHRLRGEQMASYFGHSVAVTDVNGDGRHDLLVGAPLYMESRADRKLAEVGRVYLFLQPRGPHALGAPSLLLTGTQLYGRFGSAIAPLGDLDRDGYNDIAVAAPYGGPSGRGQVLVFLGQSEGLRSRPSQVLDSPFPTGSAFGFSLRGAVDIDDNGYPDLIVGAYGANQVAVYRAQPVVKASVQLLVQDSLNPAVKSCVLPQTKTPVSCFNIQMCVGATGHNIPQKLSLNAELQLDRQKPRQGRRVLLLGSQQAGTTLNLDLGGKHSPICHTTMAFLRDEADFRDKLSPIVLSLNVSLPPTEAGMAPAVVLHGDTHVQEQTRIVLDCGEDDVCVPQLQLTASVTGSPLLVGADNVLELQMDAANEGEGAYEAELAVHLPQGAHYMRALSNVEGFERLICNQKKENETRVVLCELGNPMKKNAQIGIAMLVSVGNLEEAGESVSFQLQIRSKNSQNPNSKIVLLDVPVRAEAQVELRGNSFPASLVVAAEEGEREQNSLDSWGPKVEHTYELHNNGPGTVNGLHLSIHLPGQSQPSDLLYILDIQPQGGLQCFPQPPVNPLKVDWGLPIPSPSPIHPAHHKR
Sequence (P08514 891-1039 limits assumed): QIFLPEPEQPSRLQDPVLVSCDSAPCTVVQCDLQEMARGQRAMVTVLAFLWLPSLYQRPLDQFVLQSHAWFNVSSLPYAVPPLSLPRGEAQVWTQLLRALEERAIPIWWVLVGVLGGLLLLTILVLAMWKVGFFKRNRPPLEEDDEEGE
Experiment: Antagonist activity at FITC-tagged alphaIIbbeta3 integrin in human platelet assessed as inhibition of FITC-fibrinogen binding on washed platelets
Mark each entry Satisfied if its IC50 sits below 1 nM, and Not satisfied for all others.

Input: is_below(IC50, 1 nM) for COc1ccc(C(CC(=O)O)NC(=O)CCC(=O)Nc2ccc3c(c2)CNC3)cc1OC (stereo not given) ?
Output: Not satisfied

Input: is_below(IC50, 1 nM) for O=C(O)CCNC(=O)CCC(=O)Nc1ccc2c(c1)CNCC2 ?
Output: Not satisfied

Input: is_below(IC50, 1 nM) for COc1ccc(C(CC(=O)O)NC(=O)CCCC(=O)Nc2ccc3c(c2)CNCC3)cc1 (stereo not given) ?
Output: Not satisfied

Input: is_below(IC50, 1 nM) for COc1ccc(C(CC(=O)O)NC(=O)CCCC(=O)Nc2ccc3c(c2)CNCC3)cc1OC (stereo not given) ?
Output: Not satisfied

Further cases:
Input: is_below(IC50, 1 nM) for O=C(O)CC(NC(=O)CCC(=O)Nc1ccc2c(c1)CNCC2)c1ccccc1F (stereo not given) ?
Output: Not satisfied

Input: is_below(IC50, 1 nM) for O=C(O)CC(NC(=O)CCC(=O)Nc1ccc2c(c1)CNCC2)c1ccc(Cl)cc1 (stereo not given) ?
Output: Not satisfied

Input: is_below(IC50, 1 nM) for COc1ccc(C(CC(=O)O)NC(=O)CCC(=O)Nc2ccc3c(c2)CNCC3)cc1OC (stereo not given) ?
Output: Satisfied

Input: is_below(IC50, 1 nM) for Cc1ccc(C(CC(=O)O)NC(=O)CCC(=O)Nc2ccc3c(c2)CNCC3)cc1 (stereo not given) ?
Output: Satisfied

Input: is_below(IC50, 1 nM) for O=C(O)CC(NC(=O)CCCC(=O)Nc1ccc2c(c1)CNCC2)c1ccc2c(c1)OCO2 (stereo not given) ?
Output: Satisfied

Input: is_below(IC50, 1 nM) for O=C(O)CC(NC(=O)CCC(=O)Nc1ccc2c(c1)CNCC2)c1cccc(F)c1 (stereo not given) ?
Output: Not satisfied

Input: is_below(IC50, 1 nM) for COc1ccc(C(CC(=O)O)NC(=O)CCC(=O)Nc2ccc3c(c2)CNCC3)cc1 (stereo not given) ?
Output: Not satisfied

Input: is_below(IC50, 1 nM) for COc1ccc(C(CC(=O)O)NC(=O)c2cccc(C(=O)Nc3ccc4c(c3)CNCC4)c2)cc1OC (stereo not given) ?
Output: Satisfied

Input: is_below(IC50, 1 nM) for O=C(O)CC(NC(=O)CCC(=O)Nc1ccc2c(c1)CNC2)c1ccc2c(c1)OCO2 (stereo not given) ?
Output: Satisfied

Input: is_below(IC50, 1 nM) for O=C(O)CC(NC(=O)CCC(=O)Nc1ccc2c(c1)CNCC2)c1ccc2c(c1)OCO2 (stereo not given) ?
Output: Satisfied

Input: is_below(IC50, 1 nM) for COc1ccc(C(CC(=O)O)NC(=O)CCC(=O)Nc2ccc3c(c2)CNC3)cc1 (stereo not given) ?
Output: Not satisfied

Input: is_below(IC50, 1 nM) for COc1ccc(C(CC(=O)O)NC(=O)c2cccc(C(=O)Nc3ccc4c(c3)CNCC4)c2)cc1 (stereo not given) ?
Output: Satisfied

Input: is_below(IC50, 1 nM) for CC(C)Oc1ccc(C(CC(=O)O)NC(=O)CCC(=O)Nc2ccc3c(c2)CNC3)cc1 (stereo not given) ?
Output: Not satisfied
